Ref: PubChem BioAssay AID1851

Exercise: for every item that follows, state its recorded activity, negative = inhibition.
# target_desc: Cytochrome P450 3A4 (Homo sapiens)
# assay_summary: Cytochrome panel assay with activity outcomes; further: on the % scale 0 is the no-effect control and ±100 the full control effect
# condition: recombinant CYP, pro-luciferin dealkylation, luminescence, p450-cyp3a4; series mostly up to 57.1 µM
Hit rate of the full screen: of about 16,000 compounds, about 5,100 (32%) were called active. Not shown: some 25% with an inconclusive outcome. This is one part of the list.

Entry "Oc1ccc(CNCc2ccccc2)c2cccnc12" , activity, negative = inhibition reported as -8.41% [at 11.4 µM] (inactive)

Entry "O=C(O)[C@H]([C@H]1NCCS1)N1Cc2ccccc2C1" , activity, negative = inhibition reported as -4.44% [at 11.4 µM] (inactive)

Entry "O=C(Cn1ccc(=O)[nH]c1=O)Nc1ccc(C(=O)O)c(O)c1" , activity, negative = inhibition reported as -4.95% [at 11.4 µM] (inactive)

Entry "Nc1cccc2cc(S(=O)(=O)Nc3ccc(C(=O)O)cc3)ccc12" , activity, negative = inhibition reported as -7.54% [at 11.4 µM] (inactive)

Entry "COC(=O)[C@@H]1[C@@H]2C[C@H]3c4[nH]c5ccccc5c4CCN3C[C@@H]2CC[C@@H]1OS(=O)(=O)O" , activity, negative = inhibition reported as 0.48% [at 11.4 µM] (inactive)

Entry "O=C1C[C@@H](O)[C@@H](O)[C@@H]2[C@H]3C(=O)N(c4ccc(F)cc4F)C(=O)[C@@H]3CC[C@@H]12" , activity, negative = inhibition reported as -8.71% [at 11.4 µM] (inactive)

Entry COc1ccc(C(C(=O)NC2CCCC2)N(C(=O)c2snc(-c3ccc(F)cc3)c2N)c2ccccc2)cc1 (stereo not drawn) , activity, negative = inhibition reported as -12% [at 2.29 µM] (inactive)

Entry "NC(N)=NC[C@@H]1CCCCCCN1" , activity, negative = inhibition reported as -2.73% [at 11.4 µM] (inactive)

Entry "Nc1ccc(-c2ccc(Nc3cc(S(=O)(=O)O)c(N)c4c3C(=O)c3ccccc3C4=O)cc2)c(S(=O)(=O)O)c1" , activity, negative = inhibition reported as -1.65% [at 11.4 µM] (inactive)

Entry "O=C(NCCOC12CC3CC(CC(C3)C1)C2)c1cccc(Br)c1" , activity, negative = inhibition reported as -3.19% [at 2.29 µM] (inactive)

Entry "CC(C)Cn1c(-c2ccc(Cl)cc2)cnc1SCC(=O)N1CCOCC1" , activity, negative = inhibition reported as -5.92% [at 2.29 µM] (inactive)

Entry CCC(C)Nc1nc(OCC(F)(F)F)nc(OCC(F)(F)F)n1 (stereo not drawn) , activity, negative = inhibition reported as 4.7% [at 11.4 µM] (inactive)

Entry "C[C@H](CN(C)C)C(=O)c1ccccc1C(=O)O" , activity, negative = inhibition reported as -12.4% [at 11.4 µM] (inactive)

Entry "c1ccc(CN2CC[C@@H](CNc3ncnc4ccccc34)C2)cc1" , activity, negative = inhibition reported as -19.3% [at 11.4 µM] (inactive)

Entry "N/C(CC/C(N)=N/O)=N\O" , activity, negative = inhibition reported as -5.56% [at 11.4 µM] (inactive)

Entry CC(C)(C)C1CCc2c(C(=O)N/N=C/c3cccs3)csc2C1 (stereo not drawn) , activity, negative = inhibition reported as 5.34% [at 2.29 µM] (inactive)

Entry "Cc1ccc(C(C)C)n1C(=O)OC(C)(C)C" , activity, negative = inhibition reported as -18.1% [at 11.4 µM] (inactive)

Entry "O=C(O)c1cc(C(=O)C(=O)c2cc(C(=O)O)c(O)c3ccccc23)c2ccccc2c1O" , activity, negative = inhibition reported as -22.6% [at 11.4 µM] (inactive)

Entry "OCCNc1ncnc2c1ncn2[C@@H]1O[C@@H](CO)[C@H](O)[C@@H]1O" , activity, negative = inhibition reported as -9.88% [at 11.4 µM] (inactive)

Entry "CCCCC(=O)Nc1nnc(SCC(=O)NC2CCCC2)s1" , activity, negative = inhibition reported as -12.4% [at 2.29 µM] (inactive)

Entry "Cc1cc(N2CCN(C)CC2)n2nc(-c3ccc(Cl)cc3)nc2n1" , activity, negative = inhibition reported as -14.4% [at 11.4 µM] (inactive)

Entry "NCCCc1c(-c2ccccc2)nc(N)[nH]c1=O" , activity, negative = inhibition reported as 1.03% [at 11.4 µM] (inactive)

Entry "c1ccc2cc(-c3cc(-c4cc(-c5ccc6ccccc6c5)on4)no3)ccc2c1" , activity, negative = inhibition reported as -8% [at 11.4 µM] (inactive)

###

# target_desc: Cytochrome P450 3A4 (Homo sapiens)
# assay_summary: Cytochrome panel assay with activity outcomes; further: on the % scale 0 is the no-effect control and ±100 the full control effect
# condition: recombinant CYP, pro-luciferin dealkylation, luminescence, p450-cyp3a4; series mostly up to 57.1 µM
# Procedure: The P450 gene superfamily is involved in the metabolism and clearance of xenobiotics. This assay used various human CYP P450 isozymes to measure the dealkylation of various pro-luciferin substrates to luciferin. The luciferin is then measured by luminescence after the addition of a luciferase detection reagent. […] Inhibitors and some substrates limit the production of luciferin, and decrease measured luminescence. […] 8, Detection, 1 sec, ViewLux luminescent read […]
Out of some 16,000 compounds screened, about 5,100 (32%) were called active. Not shown: some 25% with an inconclusive outcome. This is one part of the list.
experimental_endpoint: activity, negative = inhibition

Entry "CC(=O)OC[C@@H]1O[C@@H](O/N=C2/C[C@@H](O)[C@@H](O)[C@@H]3[C@H]4C(=O)N(c5ccc(F)cc5F)C(=O)[C@@H]4CC[C@H]23)[C@H](OC(C)=O)[C@H](OC(C)=O)[C@@H]1OC(C)=O" , activity, negative = inhibition reported as -23.8% [at 11.4 µM] (inactive)

Entry "C[C@@]1(CCOCc2ccccc2)NC(=O)NC1=O" , activity, negative = inhibition reported as -5.69% [at 11.4 µM] (inactive)

Entry CN1CCN(/C=N/C2=C(C#N)C(c3ccccc3)C3=C(CC(C)(C)CC3=O)O2)CC1 (stereo not drawn) , activity, negative = inhibition reported as 1.82% [at 2.29 µM] (inactive)

Entry O=C(O)NCC1CCCCC1 (tested in a mixture with another compound) , activity, negative = inhibition reported as -26.5% [at 11.4 µM] (inactive)

Entry "O=C(O)c1ccc([N+](=O)[O-])c(P(=O)(O)O)c1" , activity, negative = inhibition reported as -2.76% [at 11.4 µM] (inactive)

Entry "CCCC1c2c(ccc3ccccc23)Oc2ccc3ccccc3c21" , activity, negative = inhibition reported as -11.1% [at 11.4 µM] (inactive)

Entry "CN(C)C(=O)c1ccc(-n2nc(C(F)(F)F)c3c2CCCC3)cc1" , activity, negative = inhibition reported as 5.72% [at 2.29 µM] (inactive)

Entry "C[C@H](O/N=C1/[C@H]2O[C@@H]2[C@@H](O)[C@H]2[C@H]1CCn1c(=O)n(-c3ccccc3)c(=O)n12)c1cn([C@H]2COC[C@H]2O)nn1" , activity, negative = inhibition reported as -7.71% [at 11.4 µM] (inactive)

Entry "Cc1ccc(S(=O)(=O)N/N=C/c2ccc(OC3CSC3)cc2)cc1" , activity, negative = inhibition reported as -21.9% [at 2.29 µM] (inactive)

Entry "COC(=O)c1cc(Br)c(=O)n(CCN2CCCC2)c1" , activity, negative = inhibition reported as 8.19% [at 2.29 µM] (inactive)

Entry "CCN1C(=O)/C(=C/C=C2/SCCN2C)SC1=S" , activity, negative = inhibition reported as 0.316% [at 2.29 µM] (inactive)

Entry "CCN1C(=O)[C@H]2[C@H]3[C@H](O)[C@H](O)C/C(=N/OCC[C@H]4C=C[C@H](OC(C)=O)[C@@H](COC(C)=O)O4)[C@@H]3CC[C@@H]2C1=O" , activity, negative = inhibition reported as -18.6% [at 11.4 µM] (inactive)

Entry "CCOc1ccc(Cc2nc(C)c(CC(=O)N3CCOCC3)c(=O)[nH]2)cc1" , activity, negative = inhibition reported as 1.75% [at 11.4 µM] (inactive)

Entry "O=C(O)[C@@H]1[C@H](C(=O)O)[C@H]2C(=O)C=C[C@H]1N2Cc1ccccc1" , activity, negative = inhibition reported as -7.47% [at 11.4 µM] (inactive)

Entry "Nc1ccccc1Nc1ccccc1" , activity, negative = inhibition reported as -23.8% [at 11.4 µM] (inactive)

Entry "COC(=O)[C@H](Cc1ccccc1)NC(=O)[C@@H](C)CO" , activity, negative = inhibition reported as -44.5% [at 11.4 µM] (inactive)

Entry "COc1ccc(C(=O)N/N=C(\C)Cn2nc([N+](=O)[O-])cc2C)cc1" , activity, negative = inhibition reported as -3.05% [at 2.29 µM] (inactive)

Entry N=C(N)SCc1ccc(Cl)cc1Cl (tested in a mixture with another compound) , activity, negative = inhibition reported as -3.48% [at 11.4 µM] (inactive)

Entry "c1ccc(CCc2cccnc2)nc1" , activity, negative = inhibition reported as -27.8% [at 11.4 µM] (inactive)

Entry "BrC(c1cccc2ccccc12)c1cccc2ccccc12" , activity, negative = inhibition reported as -10.7% [at 11.4 µM] (inactive)

Entry "COc1ccc(-c2ccc3c(n2)CCCN3C[C@H](O)CN2CCCc3nc(-c4ccc(Br)cc4)ccc32)cc1" , activity, negative = inhibition reported as -28.9% [at 11.4 µM] (inactive)

Entry "NCC[C@H](N)C(=O)O" , activity, negative = inhibition reported as -6.61% [at 11.4 µM] (inactive)

Entry "C/C(CCN1CCc2nc(-c3ccccc3)c(-c3ccccc3)cc2C1)=N\O[C@@H](C)c1cn([C@@H]2COC[C@@H]2O)nn1" , activity, negative = inhibition reported as -37.3% [at 11.4 µM] (inactive)

Entry "CN(C)[C@H]1C(=O)C(C(=O)NCN2CCCC2)=C(O)[C@]2(O)C(=O)C3=C(O)c4c(O)cccc4[C@](C)(O)[C@H]3C[C@H]12" , activity, negative = inhibition reported as -6.5% [at 11.4 µM] (inactive)

Entry "Cc1ccc(S(=O)(=O)O[C@@H]2[C@H]([C@@H]3COC(C)(C)O3)O[C@H]3OC(C)(C)O[C@@H]32)cc1" , activity, negative = inhibition reported as -4.72% [at 11.4 µM] (inactive)

Entry "C[C@@H]1/C=C\CC(=O)OC[C@H](C)C(=O)N2CCC[C@@H]2C(=O)OC1" , activity, negative = inhibition reported as -18.8% [at 11.4 µM] (inactive)

Entry "COC(=O)c1ccc(Oc2nc(N(C)C)nc(N3CCOCC3)n2)cc1" , activity, negative = inhibition reported as 14.7% [at 11.4 µM] (inactive)

Entry "Cc1cc2c(nc1C)CCCN2C[C@@H](O)CN1CCN(C)CC1" , activity, negative = inhibition reported as 0.272% [at 11.4 µM] (inactive)

Entry "Cc1cccc2nc(C(F)(F)F)nc(=O)n12" , activity, negative = inhibition reported as 0.743% [at 2.29 µM] (inactive)

Entry "CCOC(=O)N/N=C1/C[C@@H](O)[C@@H](O)[C@@H]2[C@@H]3C(=O)N(C(C)(C)C)C(=O)[C@H]3CC[C@@H]12" , activity, negative = inhibition reported as -11.7% [at 11.4 µM] (inactive)

Entry "Cc1ccc(S(=O)(=O)N=Nc2c(O)[nH]c3cc(O)c(C(=O)O)cc23)cc1" , activity, negative = inhibition reported as -1.68% [at 11.4 µM] (inactive)

Entry "C/C(CCN1CCCc2nc(C)c(C)cc21)=N\OC[C@@H](O)[C@@H]1O[C@@H]2OC(C)(C)O[C@@H]2[C@H]1O" , activity, negative = inhibition reported as -10.8% [at 11.4 µM] (inactive)

Entry "CCN1C(=O)[C@@H]2[C@H]3C(=CC[C@@H]2C1=O)C1(OCCCO1)[C@H]1O[C@@H]1[C@H]3O" , activity, negative = inhibition reported as -21.4% [at 11.4 µM] (inactive)

Entry "O=C(O)c1cc2ccccc2c(S(=O)(=O)O)c1O" , activity, negative = inhibition reported as 1.86% [at 11.4 µM] (inactive)

Entry "Cc1cc2c(nc1C)CCCCN2C[C@H](O)CN1CCCc2nc(-c3ccc(Br)cc3)ccc21" , activity, negative = inhibition reported as -29.7% [at 11.4 µM] (inactive)

Entry "Cc1ncc(COP(=O)(O)O)c(C)c1O" , activity, negative = inhibition reported as -9.44% [at 11.4 µM] (inactive)

Entry "CSc1ncnc2c1ncn2[C@@H]1O[C@@H](CO)[C@H](O)O[C@@H]1O" , activity, negative = inhibition reported as -26.2% [at 11.4 µM] (inactive)

Entry "Cn1c(=O)c2[nH]c([C@@H]3CC(=O)C[C@H](c4nc5c([nH]4)c(=O)n(C)c(=O)n5C)N3)nc2n(C)c1=O" , activity, negative = inhibition reported as 2.95% [at 11.4 µM] (inactive)
